Just for reference, patent US8273890B2 is where these values come from.

Target: recombinant Plk1 protein (Homo sapiens, UniProt P53350)
Construct: histidine tag (N)
Sequence (P53350 whole entry): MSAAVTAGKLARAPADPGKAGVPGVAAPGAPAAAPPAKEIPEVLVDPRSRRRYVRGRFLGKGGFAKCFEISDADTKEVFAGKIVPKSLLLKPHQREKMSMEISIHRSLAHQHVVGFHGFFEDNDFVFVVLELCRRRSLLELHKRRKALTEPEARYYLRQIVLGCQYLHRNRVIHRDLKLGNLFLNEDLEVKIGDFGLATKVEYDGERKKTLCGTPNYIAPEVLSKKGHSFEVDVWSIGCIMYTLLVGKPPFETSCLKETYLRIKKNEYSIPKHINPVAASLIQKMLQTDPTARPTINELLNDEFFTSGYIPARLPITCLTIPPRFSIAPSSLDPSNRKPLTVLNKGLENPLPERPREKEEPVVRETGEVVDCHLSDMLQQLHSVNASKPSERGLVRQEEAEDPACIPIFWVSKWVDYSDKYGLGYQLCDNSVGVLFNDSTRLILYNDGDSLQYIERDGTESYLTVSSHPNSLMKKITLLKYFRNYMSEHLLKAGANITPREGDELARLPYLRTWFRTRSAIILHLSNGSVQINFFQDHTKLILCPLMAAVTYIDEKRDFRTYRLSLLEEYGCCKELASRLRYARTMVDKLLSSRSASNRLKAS
Assay: Plk1 kinase activity inhibition assay (33P-ATP, alpha casein substrate, flash plates)
Conditions: enzymatic assay, 100 nM Li-ATP, 80 minutes at 30° C.
Method: The inhibition of Plk1 kinase activity can be measured using recombinant Plk1 protein expressed as an N-terminally histidine-tagged protein in SF9 insect cells and alpha casein as substrate. […] Phosphorylation of alpha casein is measured by counting the radioactivity bound to the plate for 60 sec. using a plate reader (Perkin Elmer, USA; Wallac Microbeta). By this method, the IC50 value of the Plk1 inhibition is determined as described above.
IC50 for assorted compounds

// known answers, use as guide
C[C@@H](Oc1cc(-n2cnc3cnc(CN4CCN(C)CC4CO)cc32)sc1C(N)=O)c1ccccc1C(F)(F)F (stereo partly shown) [Example 126]	< 10 nM
CC(Oc1cc(-n2cnc3cc(CN4CCN(C(=O)c5ccccc5)CC4)ncc32)sc1C(N)=O)c1ccccc1F (stereo not shown) [Example 160]	1000 to 10000 nM
CCC(Oc1cc(-n2cnc3cnc(CN4CCN(CCOC)CC4)cc32)sc1C(N)=O)c1ccccc1Cl (stereo not shown) [Example 139]	10 to 100 nM

Please give the measured IC50 for this compound: CCN1CCN(Cc2cc3c(cn2)ncn3-c2cc(OC(C)c3ccccc3F)c(C(N)=O)s2)CC1 (stereo not shown) [Example 152]
10 to 100 nM

====

In this section we review reported pIC50 values for a set of compounds.
target: recombinant Plk1 protein (Homo sapiens); construct: histidine tag (N); experiment: Plk1 kinase activity inhibition assay (33P-ATP, alpha casein substrate, flash plates); details: enzymatic assay, 100 nM Li-ATP, 80 minutes at 30° C.
pIC50: −log10 of the molar value.

Illustrative cases are given below, each with its answer.
NC(=O)c1sc(-n2cnc3cccnc32)cc1OCc1ccccc1C(F)(F)F	7.00 to 8.00
C=CCN1CCN(Cc2cc3c(cn2)ncn3-c2cc(O[C@H](C)c3ccccc3C(F)(F)F)c(C(N)=O)s2)CC1	> 8.00
CC(Oc1cc(-n2cnc3cc(CNC4CCN(C)CC4)ncc32)sc1C(N)=O)c1ccccc1F (stereo not shown)	5.00 to 6.00

Now for another entry.
Request body: readout pIC50, system recombinant Plk1 protein (Homo sapiens), query C[C@@H](Oc1cc(-n2cnc3cnc(CN4CCN(C(=O)c5ccccc5)CC4)cc32)sc1C(N)=O)c1ccccc1C(F)(F)F . Return the value.
7.00 to 8.00

====

Quick list: IC50 per entry.
target: recombinant Plk1 protein (Homo sapiens); construct: histidine tag (N); assay: Plk1 kinase activity inhibition assay (33P-ATP, alpha casein substrate, flash plates); details: enzymatic assay, 100 nM Li-ATP, 80 minutes at 30° C.

Worked set:
C[C@@H](Oc1cc(-n2cnc3cnc(CN4CCN(C5CCCCC5)CC4)cc32)sc1C(N)=O)c1ccccc1C(F)(F)F [Example 106]	10 to 100 nM
CC(Oc1cc(-n2cnc3cnc(CO)cc32)sc1C(N)=O)c1ccc(F)cc1C(F)(F)F (stereo not shown) [Example 51]	< 10 nM
C[C@@H](Oc1cc(-n2cnc3cnc(CN4CCN(C(=O)C(F)(F)F)CC4)cc32)sc1C(N)=O)c1ccccc1C(F)(F)F [Example 159]	10 to 100 nM
CCOc1ccc(OCC)c(COc2cc(-n3cnc4cnc(CO)cc43)sc2C(N)=O)c1 [Example 109]	1000 to 10000 nM
NC(=O)c1sc(-n2cnc3cnccc32)cc1OCc1cccc(C(F)(F)F)c1 [Example 35]	10 to 100 nM

Record CC(Oc1cc(-n2cnc3cc(CNC4CCC4)ncc32)sc1C(N)=O)c1ccccc1C(F)(F)F (stereo not shown) [Example 111] : what is its IC50 with recombinant Plk1 protein (Homo sapiens)?
100 to 1000 nM

Notebook entry, recombinant Plk1 protein (Homo sapiens) assay: IC50 of CCC(Oc1cc(-n2cnc3cnc(CN4CCN(c5ccncc5)CC4)cc32)sc1C(N)=O)c1ccccc1Cl (stereo not shown) [Example 143] = ?
10 to 100 nM
